- experimental_details: A quantitative high throughput screen for small molecules that induce DNA re-replication in SW480 colon adenocarcinoma cells. Note: nearly all actives have a fitted effect of over 55% in size.
- protocol_conditions: Hoechst DNA content imaging, 48 h; series mostly up to 46.1 µM
In all, about 340,000 compounds went through this assay and about 6,200 (1.8%) were called active. Not shown: some 10% with an inconclusive outcome. Calls come from the whole dose curve; as a rule, active = well fitted activation curve with a large enough effect; inconclusive = small, poorly fitted or top-dose-only effect; inactive = no such curve, though single readings can be large or run the other way. The entries come from a sample that favours actives as a whole.
Classes used: True (active), False (inactive)

1) Cc1ccc(SCc2c(C(=O)N/N=C/c3cccnc3)nnn2-c2nonc2N)cc1	False
2) Nc1nonc1-n1nnc(C(=O)N/N=C/c2cc(Br)ccc2O)c1CSC1=NCCS1	True
3) Nc1nonc1-n1nnc(C(=O)N/N=C/c2ccccc2O)c1CN1CCCC1	False
4) CCO[C@H]1OC(C(=O)NCc2ccccc2)=C[C@@H](c2coc3ccccc3c2=O)[C@@H]1CCCO	False
5) Cc1ccc(C)c(N2CCN(C(=O)CCc3nc(-c4cccc(C(F)(F)F)c4)no3)CC2)c1	False
6) CCOC(=O)C1=C(c2ccccc2)NC(=S)NC1c1ccc(Cl)cc1 (centres undefined)	False
7) C=CC(=O)Nc1ccc(Nc2ccnc(Nc3ccc(N4CCN(C)CC4)cc3)n2)cc1	False
8) CCCCCCSc1ccc([C@@H]2[C@H]3C(=O)N(CC)C(=O)[C@H]3[C@]3(C(=O)OC)CCCCN23)cc1	False
9) O=C(CCC(=O)N1CCN(S(=O)(=O)c2ccc(Cl)cc2)CC1)NCc1cccc(C(F)(F)F)c1	False

----------
- experimental_details: A quantitative high throughput screen for small molecules that induce DNA re-replication in SW480 colon adenocarcinoma cells. Note: nearly all actives have a fitted effect of over 55% in size.
- protocol_conditions: Hoechst DNA content imaging, 48 h; series mostly up to 46.1 µM
- Text: H Molecular Libraries Probe Production Network [MLPCN] NIH Chemical Genomics Center [NCGC] […] To identify compounds that induce re-replication in normal cells, an image-based assay was used to measure DNA content of nuclei, as detected by the fluorescent DNA binding dye, Hoechst. Cell nuclei were imaged by a fluorescence scanning plate imager and compounds that induce DNA re-replication were identified by the increase of nuclei with elevated fluorescence intensity […]
About 6,200 (1.8%) of roughly 340,000 compounds were called active. Another 10% or so got no clear call; they are omitted. Calls come from the whole dose curve; as a rule, active = well fitted activation curve with a large enough effect; inconclusive = small, poorly fitted or top-dose-only effect; inactive = no such curve, though single readings can be large or run the other way. For the sample, actives were picked, then their nearest neighbours and some compounds at random.
Classes used: label 1 (active), label 0 (inactive)

1. Cc1cccc(C(=O)N[C@H](C(=O)NCc2cccs2)C(C)C)c1	label 0
2. Cn1nc(-c2ccccc2)c(CSc2cccc(Cl)c2)c1Cl	label 1
3. O=C(Nc1ccccc1Cl)Nc1cccc2cccnc12	label 0
4. CC1O[C@@H](OC2C(O)C(C)O[C@H](OC(=O)[C@]34CCC(C)(C)C[C@H]3C3=CCC5[C@@]6(C)CC(O)C(O[C@@H]7OC(CO)C(O)[C@@H](O)[C@@H]7O)[C@@](C)(C(=O)O)C6CC[C@@]5(C)[C@]3(CO)CC4)C2O[C@H]2OC(C)[C@@H](O[C@@H]3OCC(O[C@@H]4OC(CO)C(O)[C@H](O)C4O)[C@@H](O)[C@@H]3O)[C@H](O)C2O)C(O)C(O)C1O (stereo partly specified)	label 0
5. C=CC[C@@H](CC(=O)N[C@@H](CO)Cc1ccccc1)C(=O)NCCOC(=O)[C@@H](CC=C)CC(=O)OC(C)(C)C	label 0
6. Cc1cc(Nc2ccc(Cl)cc2)nc(N2CCOCC2)n1	label 0
7. Cc1cc(C)n(-c2ccc(C(=O)O)cc2[N+](=O)[O-])n1	label 0
8. CCCCCCc1ccc(O)cc1O	label 0
9. CC(=O)c1ccc(Oc2cc(C)nc(-n3nc(C)cc3C)n2)cc1	label 1
10. Cc1cc(=O)oc2cc(OCCC[n+]3ccccc3)ccc12	label 0
11. CCOC(=O)N1CCN(C(=O)c2ccccc2N(Cc2ccccc2)S(=O)(=O)c2ccc(OC)cc2)CC1	label 1
12. NC(=O)c1ncn([C@@H]2O[C@H](CNCc3cnc(N4CCOCC4)s3)[C@@H](O)[C@H]2O)n1	label 0
13. CCOc1ccc(N(C(=O)c2snc(C(N)=O)c2N)C(C(=O)NCC2CCCO2)c2c[nH]c3ccccc23)cc1 (stereo unspecified)	label 0
14. C[C@@H]1ON(C)[C@H]2C[C@H]3c4cc(N5CCN(C)CC5)ccc4CCN3C(=O)[C@@H]12	label 0
15. Cc1nnc(N/N=C/C2CC=CCC2)[nH]c1=O (stereo unspecified)	label 0
16. CC(=O)c1cccc(-c2ccc(CN3C(CC(C)C)C(=O)N(Cc4cn(CC5CCCCC5)nn4)CCS3(=O)=O)cc2)c1 (stereo unspecified)	label 0
17. Cc1cc(=O)oc2cc(OCC3CC(c4ccccc4Cl)=NO3)ccc12 (stereo unspecified)	label 1
18. CCC(=O)NC(Nc1nc2ccc(C)cc2s1)(C(=O)OC)C(F)(F)F (stereo unspecified)	label 0
19. O=C(NC(Nc1nc2ccc([N+](=O)[O-])cc2s1)(C(F)(F)F)C(F)(F)F)c1ccccc1	label 1
20. Oc1ccc(/C=N/NC2=NCCCCC2)c(O)c1	label 0
21. COc1ccc(C(=O)OCc2cc(=O)n3ccsc3n2)cc1F	label 0
22. CCC(C)N1C(=O)S/C(=C/c2ccc(Sc3nc4ccccc4[nH]3)o2)C1=O (stereo unspecified)	label 1
23. O=C(Nc1nnc(Cc2ccc(Cl)cc2)s1)c1ccncc1	label 0
24. Cc1nnc(N/N=C/c2ccccn2)[nH]c1=O	label 1
25. CC(NC(=O)c1ccccc1)C(=O)OCC(=O)Nc1cccc(S(=O)(=O)N2CCCC2)c1 (stereo unspecified)	label 0
26. CCCC(O)(c1ccccc1)C(c1ccccc1)c1ccccn1 (stereo unspecified)	label 0
27. Oc1ccc(-c2nc3ccccc3nc2-c2ccc(O)cc2O)c(O)c1	label 0
28. CC(=O)/C(=N\Nc1ccc(Cl)cc1Cl)Sc1cccc2cccnc12	label 1
29. Cc1nc(Cl)cc(N/N=C/c2ccccc2)n1	label 0
30. CNc1nc(=O)n(C2CCCO2)cc1C (stereo unspecified)	label 0
31. O=C(Nc1nnc(Cc2ccccc2)s1)c1cnccn1	label 0
32. CCN1C[C@@H]2[C@@H]3C(=O)N(Cc4ccccc4)C(=O)[C@@H]3[C@](C)(C1=O)N2C(=O)c1ccc(C(C)(C)C)cc1	label 0
33. Cc1ccc(S(=O)(=O)Nc2nc(C)cc(N/N=C/c3ccc(O)cc3)n2)cc1	label 0
34. CCOc1ccc2nc(NC(=O)c3cc([N+](=O)[O-])ccc3N3CCOCC3)sc2c1	label 0
35. O=C(Nc1nnc(Cc2ccc(Cl)cc2)s1)c1cccnc1	label 1
36. CCOC(=O)N1CCN(S(=O)(=O)c2ccc(OC)cc2)CC1	label 0
37. COc1ccc(Nc2cc(C)nc(-n3nc(C)cc3C)n2)cc1	label 1
38. COc1ccc(C(=O)Nc2cc(S(=O)(=O)N3CCCC3)ccc2Cl)cc1	label 0
39. O=C(Nc1cccc2cccnc12)c1cccc(Cl)c1	label 0
40. CC(=O)Nc1ccc(NC(=O)COC(=O)C2CCC(C(C)(C)C)CC2)cc1 (stereo unspecified)	label 0
41. Cc1cc(C(=O)COc2ccc(Br)cc2F)c(C)n1C1CC1	label 0

----------
- experimental_details: A quantitative high throughput screen for small molecules that induce DNA re-replication in SW480 colon adenocarcinoma cells. Note: nearly all actives have a fitted effect of over 55% in size.
- protocol_conditions: Hoechst DNA content imaging, 48 h; series mostly up to 46.1 µM
The whole screen tested about 340,000 compounds, of which about 6,200 (1.8%) were called active. Not shown: some 10% with an inconclusive outcome. Calls follow the shape of the dose curve; as a rule, active = well fitted activation curve with a large enough effect; inconclusive = small, poorly fitted or top-dose-only effect; inactive = no such curve, though single readings can be large or run the other way. Shown is part of a subset that was picked to be rich in actives.
Classes used: true for active, false for inactive

1. COc1ccc2nc(N3C(=O)C(O)=C(C(=O)c4ccco4)C3c3ccco3)sc2c1 (stereo not drawn)	false
2. COCC(C)n1c(SCC(=O)NC2CCCCC2C)nc2ccccc2c1=O (stereo not drawn)	false
3. Cc1ccc(C2CC(=O)NC(SCC(=O)OCc3ccccc3)=C2C#N)o1 (stereo not drawn)	false
4. O=C(COc1ccc(Cl)cc1)NCCC1=CCCCC1	false
5. COc1ccc(S(=O)(=O)N2CCC(C(=O)NCc3ccco3)CC2)cc1C	false
6. COc1ccc(C2=NOC(C(=O)NCc3ccco3)C2)cc1OC (stereo not drawn)	true
7. O=C(CC1NCCNC1=O)Nc1ccc(Oc2ccccc2)cc1 (stereo not drawn)	false
8. O=C(NCc1cccs1)c1cc(-c2ccccn2)nc2ccc(Br)cc12	false
9. O=C1COc2c1ccc(O)c2O	false
10. Cc1ccc(S(=O)(=O)c2nnn3c2nc(N2CCN(c4ccccn4)CC2)c2ccccc23)cc1	false
11. C[C@@H]1CN([C@H](C)CO)C(=O)c2cc(NC(=O)NC3CCCCC3)ccc2O[C@H]1CN(C)S(C)(=O)=O	false
12. CCOC(=O)C1=CN(Cc2ccc(Br)cc2)S(=O)(=O)N(C)C1C (stereo not drawn)	false
13. S=C(Nc1ccccc1)Nc1ccc2ccccc2c1	false
14. Nc1ncnc2c1ncn2[C@@H]1O[C@H](CNS(=O)(=O)c2ccc(-c3ccno3)s2)[C@@H](O)[C@H]1O	false
15. CC(=O)Nc1ccc(C(=O)Nc2cc(S(=O)(=O)N3CCOCC3)ccc2N2CCOCC2)cc1	false
16. O=C(Nc1ccc(N2CCOCC2)cc1)c1cccc(S(=O)(=O)N2CCOCC2)c1	false
17. COc1ccc(C)cc1NC(=O)CSc1cccc[n+]1[O-]	false
18. CNC[C@@H]1Oc2c(NS(C)(=O)=O)cccc2C(=O)N([C@@H](C)CO)C[C@H]1C	false
19. CCOC(=O)C1CCCN(C(=O)c2ccc(C)c(S(=O)(=O)N3CCCCC3)c2)C1 (stereo not drawn)	false
20. CCC(CO)Oc1cc(NC(=O)c2cccc(F)c2)c2ncn(C(C)C)c2c1 (stereo not drawn)	false
21. COc1ccc(CNC(=O)C2CC(c3ccc(C(F)(F)F)cc3)=NO2)cc1 (stereo not drawn)	false
22. Cc1cccc(CSc2nnc(NC(=O)CSc3nnc(C)s3)s2)c1	false
23. CCCOc1ccc(C(=O)CCC(=O)OC(C)C(=O)Nc2ccc(NC(C)=O)cc2)cc1 (stereo not drawn)	false
24. COC(=O)c1ccc(CSc2nc3ccccc3c(=O)n2-c2cccc(OC)c2)o1	false
25. COc1ccc2oc(N)nc2c1	false
26. CCCCNCCS(=O)(=O)NCc1ccccc1	false
27. O=C(CSc1ncn[nH]1)Nc1ccc(Br)cc1Br	false
28. Cc1cccc(-n2ncc3c(=O)[nH]c(SCC(=O)Nc4cc(C)on4)nc32)c1	false
29. OCC(O)C1OCOC(C(O)CO)C1O (stereo not drawn)	false
30. CN(C(=O)COC(=O)Cc1ccccc1[N+](=O)[O-])C1CCS(=O)(=O)C1 (stereo not drawn)	false
31. Cc1nnc(OCC(=O)NCCC2=CCCCC2)c2ccccc12	true
32. Cc1cccc(Nc2nc3c(S(=O)(=O)c4ccccc4)nnn3c3ccccc23)c1C	false
33. Cc1cccc(NC(=O)c2ccc(S(=O)(=O)N(C)c3ccccc3)cc2)n1	false
34. CCOC(=O)CSC1=C(C#N)C(c2sccc2C)CC(=O)N1 (stereo not drawn)	true
35. Cc1nnc(NC(=O)CSc2nccn2-c2cccc(C)c2C)s1	true
36. COc1ccccc1-n1c(CNC(=O)c2ccccc2)nnc1SCC(=O)Nc1nnc(C)s1	false
37. O=C(NCC(c1cccs1)N1CCOCC1)c1cc(-c2ccccn2)nc2ccccc12 (stereo not drawn)	false
38. O=C(NCCCN1CCOCC1)c1cn(-c2ccccc2)nc1-c1ccc(F)cc1	false
39. Cc1ccc(C(=O)Nc2ccccc2-c2ccccc2)cc1S(=O)(=O)Nc1ccccc1	false
40. COC(=O)c1cc(C)sc1NC(=O)CC1Nc2ccccc2NC1=O (stereo not drawn)	false
41. Cc1ccc(-c2nn(-c3ccc(F)cc3)cc2C(=O)NCC(c2cccs2)N2CCOCC2)cc1 (stereo not drawn)	true
42. COc1cccc(NC(=O)C2c3cc(OC)c(OC)cc3C(=O)N(C)C2c2cccnc2)c1 (stereo not drawn)	false
43. CC1CCCN(C(=O)CN2C(=O)c3ccccc3S2(=O)=O)C1 (stereo not drawn)	false
